Entry source: paper PMC3235172

SUBJECT_OF_TEST: NlugOBP3 (Nilaparvata lugens, UniProt B6E9U3)
Sequence (B6E9U3 entry or part of it): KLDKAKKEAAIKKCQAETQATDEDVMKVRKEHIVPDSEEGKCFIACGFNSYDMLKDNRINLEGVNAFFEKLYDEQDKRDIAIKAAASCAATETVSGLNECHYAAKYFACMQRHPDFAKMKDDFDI
TEST_DETAILS: Competitive fluorescence binding assay (1-NPN probe) with recombinant NlugOBP3
PROPERTY_LABEL: pKd
Keep it numeric: pKd is minus log10 of the concentration in mol/L.

**Q:** Quick one: pKd for c1ccc(Nc2cccc3ccccc23)cc1 [Ligand 1-NPN, N-phenyl-1-naphthyl-amine, reference compound] ?
**A:** 5.49

* * *

SUBJECT_OF_TEST: NlugOBP2 (Nilaparvata lugens, UniProt B6E9U2)
Sequence (B6E9U2 entry or part of it): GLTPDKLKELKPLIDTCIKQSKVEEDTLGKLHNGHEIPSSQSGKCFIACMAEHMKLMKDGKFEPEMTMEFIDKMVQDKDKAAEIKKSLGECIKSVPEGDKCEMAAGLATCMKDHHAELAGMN
TEST_DETAILS: Competitive fluorescence binding assay (1-NPN probe) with recombinant NlugOBP2
Provide the reported pKi of each item.
pKi here: minus log base 10 of the concentration, concentration in moles per litre.

**Q:** Quick one: pKi for COC(C)(C)CCC[C@H](C)C/C=C/C(C)=C/C(=O)OC(C)C (racemic) [Ligand 39, Methoprene] ?
**A:** 4.74

**Q:** Consider the compound C=C1CC/C=C(\C)CC[C@@H]2[C@@H]1CC2(C)C [Ligand 36, β-Caryophyllene] and give its measured pKi.
**A:** 4.59

**Q:** Quick check: pKi of COC(=O)c1ccccc1O [Ligand 25, Methyl salicylate] ?
**A:** 4.49

**Q:** // query pKi value for entry CCC/C=C/C=O [Ligand 13, (E)-2-Hexenal]
**A:** 4.54

**Q:** Entry under review: CC(=O)/C=C/C1=C(C)CCCC1(C)C [Ligand 37, β- Ionone] . Reported pKi?
**A:** 4.65

**Q:** Any idea what pKi was measured for CC(C)c1ccccc1 [Ligand 38, Cumene] ?
**A:** 4.47

**Q:** Data request, read-out pKi, for O=Cc1ccccc1 [Ligand 14, Benzaldehyde]
**A:** 4.48

* * *

SUBJECT_OF_TEST: NlugOBP1 (Nilaparvata lugens, UniProt B6E9U1)
Sequence (B6E9U1 entry or part of it): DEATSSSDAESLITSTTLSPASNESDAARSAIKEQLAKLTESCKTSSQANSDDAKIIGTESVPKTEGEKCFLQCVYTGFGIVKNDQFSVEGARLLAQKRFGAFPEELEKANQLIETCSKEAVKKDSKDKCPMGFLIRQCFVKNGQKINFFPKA
TEST_DETAILS: Competitive fluorescence binding assay (1-NPN probe) with recombinant NlugOBP1
pIC50: −log10 of the molar value.
PROPERTY_LABEL: pIC50

**Q:** May I ask what pIC50 has been recorded for C=CC(C)(O)CCC=C(C)C (stereo not shown) ?
**A:** 4.39

**Q:** Query (molecule): CCC/C=C/C=O [Ligand 13, (E)-2-Hexenal] ; field requested: pIC50
**A:** < 4.30

**Q:** Entry `C=C1CC/C=C(\C)CC[C@@H]2[C@@H]1CC2(C)C` has what pIC50?
**A:** < 4.30

**Q:** Would you mind telling me what pIC50 value was observed for CC/C=C/CCO [Ligand 4, (E)-3-Hexen-1-ol] ?
**A:** < 4.30

**Q:** Record request: pIC50 value, item CCOC(=O)c1ccccc1 [Ligand 23, Ethyl benzoate]
**A:** < 4.30

**Q:** Can you share its pIC50? I mean this molecule: CC1CCC(C(C)C)C(O)C1 (stereo not shown)
**A:** < 4.30

**Q:** Using the record for COC(=O)c1ccccc1O [Ligand 25, Methyl salicylate] , report its pIC50.
**A:** < 4.30

**Q:** If you can, please state the reported pIC50 value of `CCCCCCCCCCCC(=O)O` .
**A:** 4.92

**Q:** Tell me the measured pIC50 of CC1=CC[C@@H]2C[C@H]1C2(C)C [Ligand 34, (+)-α-Pinene] , please.
**A:** 4.44

**Q:** Give its pIC50 value. Item: `C[C@@H]1CC[C@H]2C(C)(C)[C@H]3C[C@@]12CC[C@@]3(C)O`
**A:** 4.52

**Q:** Give the measured pIC50 of COC(=O)c1ccccc1 [Ligand 24, Methyl benzoate] .
**A:** < 4.30

**Q:** Look up pIC50 for this molecule: `CC(C)=CCC/C(C)=C/CO`
**A:** < 4.30

**Q:** What value of pIC50 has been reported for the following molecule? `O=Cc1ccccc1`
**A:** < 4.30

**Q:** Param item = COC(C)(C)CCC[C@H](C)C/C=C/C(C)=C/C(=O)OC(C)C (racemic) ; retrieve measured pIC50.
**A:** 4.71

**Q:** Which pIC50 value is on record for `CC(=O)/C=C/C1=C(C)CCCC1(C)C` ?
**A:** 4.60

**Q:** Value lookup for pIC50; key = `CC(C)c1ccccc1`
**A:** < 4.30

* * *

SUBJECT_OF_TEST: NlugOBP1 (Nilaparvata lugens, UniProt B6E9U1)
TEST_DETAILS: Competitive fluorescence binding assay (1-NPN probe) with recombinant NlugOBP1
EXPERIMENTAL_CONTEXT: calculated from IC50; protein and 1-NPN at 2 µM; pH 7.4; read-out: OBP1 Ki
PROPERTY_LABEL: pKi
Interpret pKi as the negative base-10 log of the concentration measured in mol/L.

**Q:** // returns reported pKi for input `C=CC(=C)CCC=C(C)C`
**A:** 4.79

**Q:** Param item = `CCCCCCCCCCCCCC(C)=O` ; retrieve measured pKi.
**A:** 4.60

**Q:** Need pKi, item `CCCCCCCCCCCC(C)=O`
**A:** 4.69

**Q:** # get_value(readout='pKi', item= C=CC(C)(O)CC/C=C(\C)CCC=C(C)C (racemic) [Ligand 3, (+/-)Nerolidol] )
**A:** 4.62

**Q:** Which pKi reading was recorded for the compound CCCCCCOC(C)=O [Ligand 21, Hexyl acetate] ?
**A:** 4.42

**Q:** Record request: pKi value, item `CC(C)=CCC/C(C)=C/CC/C(C)=C/CO`
**A:** 4.71

**Q:** Data request, read-out pKi, for `CCCCCCCCCCCC=O`
**A:** 4.78

**Q:** // pKi lookup, key: `OCCc1ccccc1`
**A:** 4.47

**Q:** Which pKi is reported for this compound? `CC(=O)c1ccccc1`
**A:** 4.53

**Q:** Can you look up the measured pKi of `CC(C)(C)c1cccc(C(C)(C)C)c1O` for me?
**A:** 4.72

**Q:** What value of pKi has been recorded for this entry: `CCCCCCCCCCCCCCCC(=O)O`
**A:** 4.66

**Q:** Could you tell me which pKi is on file for CC(=O)OCCC(C)C [Ligand 19, Isoamyl acetate] ?
**A:** 4.52

**Q:** I am curious: what pKi value has been reported for C=C(C)[C@H]1CC=C(C)CC1 [Ligand 35, (R)-(+)-Limonene] ?
**A:** 4.56

* * *

SUBJECT_OF_TEST: NlugOBP3 (Nilaparvata lugens)
TEST_DETAILS: Competitive fluorescence binding assay (1-NPN probe) with recombinant NlugOBP3
PROPERTY_LABEL: pKi
In plain terms, pKi is the concentration in mol/L turned into minus its base-10 logarithm.

**Q:** Observed pKi on NlugOBP3 (Nilaparvata lugens) for CC/C=C/CCO [Ligand 4, (E)-3-Hexen-1-ol] , please.
**A:** 4.68

**Q:** Recall the recorded pKi for CCC/C=C/C=O [Ligand 13, (E)-2-Hexenal] with NlugOBP3 (Nilaparvata lugens) and state it.
**A:** 4.52

**Q:** Provide value of pKi for this record tested with NlugOBP3 (Nilaparvata lugens): O=Cc1ccccc1 [Ligand 14, Benzaldehyde]
**A:** 4.53

**Q:** Provide value of pKi for this record tested with NlugOBP3 (Nilaparvata lugens): CC(=O)/C=C/C1=C(C)CCCC1(C)C [Ligand 37, β- Ionone]
**A:** 5.21

**Q:** Short answer please: pKi, NlugOBP3 (Nilaparvata lugens), entry C=C1CC/C=C(\C)CC[C@@H]2[C@@H]1CC2(C)C [Ligand 36, β-Caryophyllene]
**A:** 4.57

**Q:** Checklist item: pKi tested on NlugOBP3 (Nilaparvata lugens), entry CC(C)c1ccccc1 [Ligand 38, Cumene] , value?
**A:** 4.58

**Q:** Form: Entry = CCOC(=O)c1ccccc1 [Ligand 23, Ethyl benzoate] | System = NlugOBP3 (Nilaparvata lugens) | pKi = ____
**A:** 4.55

**Q:** What measured pKi is associated with CC(C)=CCC/C(C)=C/CO [Ligand 8, Geraniol] on NlugOBP3 (Nilaparvata lugens)?
**A:** 4.63

**Q:** Request - read-out pKi | tested on NlugOBP3 (Nilaparvata lugens) | compound COC(C)(C)CCC[C@H](C)C/C=C/C(C)=C/C(=O)OC(C)C (racemic) [Ligand 39, Methoprene]
**A:** 4.98

**Q:** Request body: readout pKi, system NlugOBP3 (Nilaparvata lugens), query C[C@@H]1CC[C@H]2C(C)(C)[C@H]3C[C@@]12CC[C@@]3(C)O [Ligand 9, Cedrol] . Return the value.
**A:** 4.85

**Q:** Please tell me: pKi of COC(=O)c1ccccc1O [Ligand 25, Methyl salicylate] , system NlugOBP3 (Nilaparvata lugens)?
**A:** 4.49

**Q:** Find the measured pKi: item CC1=CC[C@@H]2C[C@H]1C2(C)C [Ligand 34, (+)-α-Pinene] , target or system NlugOBP3 (Nilaparvata lugens).
**A:** 4.94

**Q:** Tell me reported pKi for CCCCCCCCCCCC(=O)O [Ligand 26, Dodecanoic acid] , tested with NlugOBP3 (Nilaparvata lugens).
**A:** 5.00
